Cited source for all entries: PubChem BioAssay AID602166

TARGET_OR_TEST_SYSTEM: Nuclear receptor coactivator 3 (Homo sapiens) (UniProt Q9Y6Q9)
Sequence (Q9Y6Q9 whole entry, looked up): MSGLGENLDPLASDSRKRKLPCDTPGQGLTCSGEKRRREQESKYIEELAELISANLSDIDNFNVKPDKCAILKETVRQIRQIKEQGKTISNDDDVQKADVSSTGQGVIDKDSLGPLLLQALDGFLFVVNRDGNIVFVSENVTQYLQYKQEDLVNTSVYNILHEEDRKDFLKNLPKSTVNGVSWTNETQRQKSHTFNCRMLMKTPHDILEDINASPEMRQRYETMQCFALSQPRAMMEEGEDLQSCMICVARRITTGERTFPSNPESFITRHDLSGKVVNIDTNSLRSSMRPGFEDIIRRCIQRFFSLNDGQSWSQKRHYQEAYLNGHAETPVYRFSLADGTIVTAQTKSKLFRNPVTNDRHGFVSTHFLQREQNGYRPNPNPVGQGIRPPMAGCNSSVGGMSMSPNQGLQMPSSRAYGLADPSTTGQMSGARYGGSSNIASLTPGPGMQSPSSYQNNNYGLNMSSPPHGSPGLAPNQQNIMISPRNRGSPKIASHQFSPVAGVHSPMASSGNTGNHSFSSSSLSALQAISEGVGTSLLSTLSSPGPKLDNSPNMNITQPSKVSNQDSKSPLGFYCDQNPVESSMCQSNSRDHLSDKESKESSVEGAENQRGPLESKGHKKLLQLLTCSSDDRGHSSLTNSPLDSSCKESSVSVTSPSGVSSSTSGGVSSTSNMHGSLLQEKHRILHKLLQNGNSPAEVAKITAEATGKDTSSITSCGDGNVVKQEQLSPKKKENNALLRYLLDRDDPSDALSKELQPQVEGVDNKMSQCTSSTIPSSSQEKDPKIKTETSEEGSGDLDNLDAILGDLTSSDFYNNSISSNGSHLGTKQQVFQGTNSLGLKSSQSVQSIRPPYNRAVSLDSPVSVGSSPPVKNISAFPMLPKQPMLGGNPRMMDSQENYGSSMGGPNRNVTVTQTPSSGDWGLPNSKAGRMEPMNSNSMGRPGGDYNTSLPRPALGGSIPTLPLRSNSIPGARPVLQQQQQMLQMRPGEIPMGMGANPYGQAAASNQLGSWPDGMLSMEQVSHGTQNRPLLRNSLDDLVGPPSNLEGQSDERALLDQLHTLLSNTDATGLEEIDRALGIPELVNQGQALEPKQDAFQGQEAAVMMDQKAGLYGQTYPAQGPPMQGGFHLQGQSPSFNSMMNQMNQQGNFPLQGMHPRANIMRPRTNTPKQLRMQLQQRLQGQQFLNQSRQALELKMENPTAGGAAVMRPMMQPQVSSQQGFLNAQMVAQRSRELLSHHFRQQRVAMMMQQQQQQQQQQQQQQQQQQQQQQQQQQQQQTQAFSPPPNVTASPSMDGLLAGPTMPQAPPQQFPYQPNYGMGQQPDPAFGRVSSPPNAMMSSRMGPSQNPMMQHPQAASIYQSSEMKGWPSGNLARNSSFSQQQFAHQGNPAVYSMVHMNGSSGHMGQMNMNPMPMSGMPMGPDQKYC
METHOD_SUMMARY: NCOA3 reporter inhibition potency – cell-based, luminescence, dose response (AID 602166);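 further: potency for reduction of SRC3 reporter signal so compounds are inhibitors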
STATED_CONDITIONS: SRC3 luciferase reporter cell assay
Calls of active or inactive are those of the source. How the calls were made is not given here.
Write down the outcome that applies. Available outcomes: Yes = active, No = inactive

Test call, this compound: `NC(=S)NN=Cc1nccc2c(N)cccc12`
Yes

Test call, this compound: `CCC(=O)N1CCN(c2ccnc3cc(Cl)ccc23)CC1`
Yes

Test call, this compound: `Fc1ccccc1-c1csc(=Nc2cccnc2)n1CCCn1ccnc1`
Yes

Test call, this compound: `O=C(COc1ccc(Cl)cc1)Nc1ccc(C(=O)NCc2cccnc2)cc1`
No

Test call, this compound: `COc1cc(C(=O)N/N=C(\c2ccccc2)c2ccccn2)cc(OC)c1OC`
No

Test call, this compound: `COc1ccc(/C=C2/SC(=S)N(CCC(=O)O)C2=O)cc1`
No

Test call, this compound: `NS(=O)(=O)c1ccc(Sc2nc3ccccc3s2)c([N+](=O)[O-])c1`
No

Test call, this compound: `CCC(=O)c1ccc(O)c(CC=C(C)C)c1`
Yes

Test call, this compound: `CCOc1cc(/C=C2\CCC/C(=C\c3cc(Cl)c(O)c(OCC)c3)C2=O)cc(Cl)c1O`
No

Test call, this compound: `Cc1ccc(NC(=O)c2cc(C)n(-c3ccccc3)c2C)cc1`
No

Test call, this compound: `NC(=S)N/N=C1\CCOc2ccc(Cl)cc21`
Yes

Test call, this compound: `Cc1sc2ncnc(N3CCC(C(=O)Nc4ccccc4C(C)(C)C)CC3)c2c1C`
Yes

Test call, this compound: Cc1cccc2sc(NNC(=O)c3ccc(S(=O)(=O)N4CC(C)CC(C)C4)cc3)nc12 (stereo not drawn)
Yes

Test call, this compound: `O=C(Nc1nc2cc3c(cc2s1)OCCO3)C1=COCCO1`
No

Test call, this compound: `Oc1ccc(C=NNc2ccccn2)c(O)c1`
No

Test call, this compound: `CNc1ncnc(Sc2nc(N)nc3nc[nH]c23)c1[N+](=O)[O-]`
Yes

Test call, this compound: `Cc1cc(-c2nnc(SCC(=O)Nc3ccccc3C(F)(F)F)o2)c(C)n1-c1ccccc1`
No

Test call, this compound: O=C(CC(Nc1ccc(Cl)cc1Cl)C(=O)O)c1ccccc1 (stereo not drawn)
No

* * *

TARGET_OR_TEST_SYSTEM: Nuclear receptor coactivator 3 (Homo sapiens) (UniProt Q9Y6Q9)
METHOD_SUMMARY: NCOA3 reporter inhibition potency – cell-based, luminescence, dose response (AID 602166);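 further: potency for reduction of SRC3 reporter signal so compounds are inhibitors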
STATED_CONDITIONS: SRC3 luciferase reporter cell assay
Active and inactive are the calls of the source. How the calls were made is not given here.
Write down the outcome that applies. Available outcomes: active, inactive

Test call, this compound: `Cc1ccc2occ(/C=N/NC(=O)c3ccccc3Br)c(=O)c2c1`
inactive

Test call, this compound: `O=C(CNc1cccc([N+](=O)[O-])c1)N/N=C/c1ccc([N+](=O)[O-])o1`
inactive

Test call, this compound: `CCOc1ccc(/C=C2\SC(=S)N(CCCC(=O)NCCCN3CCOCC3)C2=O)cc1`
inactive

Test call, this compound: O=C(CCl)NC(Cc1ccccc1)c1ccccc1 (centres undefined)
active

Test call, this compound: `CC[C@@]1(O)C(=O)OCc2c1cc1n(c2=O)Cc2cc3c(NC(=O)CN)cccc3nc2-1`
active

Test call, this compound: `CN[C@H]1CCc2cc(OC)c(OC)c(OC)c2-c2ccc(OC)c(=O)cc21`
inactive

Test call, this compound: `Cc1nc(N)nc(N)c1-c1ccc(Cl)c(Cl)c1`
active

Test call, this compound: `Cc1ccc(/C=C2\SC(=S)N(CCCC(=O)NC3CCCC3)C2=O)cc1`
active

Test call, this compound: CCCC(=O)NC(c1ccc2c(c1)OCO2)c1cc(Cl)c2cccnc2c1O (centres undefined)
active

Test call, this compound: `O=C(Nc1ccccc1Oc1ccccc1)c1cc([N+](=O)[O-])ccc1Cl`
active

Test call, this compound: `Cc1ccc(-n2c(C)cc(C(=O)COc3cccnc3[N+](=O)[O-])c2C)cc1`
inactive

Test call, this compound: COc1cccc2c1C(=N)c1c(O)c3c(c(O)c1C2=O)CC(O)(C(C)=O)CC3OC1CC(N)C(O)C(C)O1 (centres undefined)
inactive

Test call, this compound: `COc1cc(C(=O)OCC(=O)Nc2sccc2C(N)=O)cc(OC)c1OC`
inactive

Test call, this compound: `Cc1cc(C(=O)COC(=O)C2=COCCO2)c(C)n1-c1ccccc1`
inactive

Test call, this compound: `O=[N+]([O-])c1nn(-c2ccc3c(c2)OCCO3)n(O)c1=Nc1ccccc1`
active

Test call, this compound: `C=CS(=O)(=O)N(Cc1ccc(Cl)c(Cl)c1)C[C@@H](O)CO`
active

Test call, this compound: `C(=N\Nc1ccc2ccccc2n1)/c1ccc2c(c1)OCCO2`
inactive

Test call, this compound: `O=c1[nH]c(O)c(N=Nc2ccc3c(c2)OCCO3)c(=O)[nH]1`
inactive

Test call, this compound: O=C(NC1CCCCC1)C(c1cccnc1)N(C(=O)CCl)c1cccc(Cl)c1 (centres undefined)
active

Test call, this compound: O=c1[nH]c2ccccc2n1C1CCN(C(c2ccccc2)c2nnnn2Cc2ccccc2)CC1 (centres undefined)
inactive

Test call, this compound: `CCCS(=O)(=O)Nc1ccc(Nc2c3ccccc3nc3ccccc23)c(OC)c1`
active

Test call, this compound: `CCOc1ccc(Nc2cc(C)nc(-n3nc(C)cc3C)n2)cc1`
inactive

Test call, this compound: `O=[N+]([O-])c1cccc2c1ccc1ncccc12`
active

Test call, this compound: `CC(C)N(c1ccccc1)c1ccc(NC(=O)CCl)cc1`
inactive
